Test: Acute toxicity, 50 % lethal dose (LD₅₀)
Settings: mouse, in vivo; Oral administration, male mice, probit method
Parameter: LD50

cpd_smiles=CCCc1ccc(N2CCNCC2)c(S(=O)(=O)O)c1.Cl observed="2800 mg/kg"

###

Test: Acute toxicity, 50 % lethal dose (LD₅₀)
Settings: mouse, in vivo; Intravenous administration (tail vein), male mice, up and down method
Parameter: LD50 (mg/kg)

cpd_smiles=CCCc1ccc(N2CCNCC2)c(S(=O)(=O)O)c1.Cl output_unit=mg/kg observed=63
